# Tested on: MALME-3M melanoma
# ASSAY DETAILS: NCI tumour cell line growth inhibition, 48 h
Where a SMILES comes first, the peptide text is derived from it.
ASSAY METRIC: GI50

Examples with answers:
CCC(C)C1NC(=O)C(CCCCN)NC(=O)C(CCCCN)NC(=O)C(CC(C)C)NC(=O)C(CCCCN)NC(=O)C(C(C)CC)NC(=O)C(C(C)C)NC(=O)C(C(C)CC)NC(=O)C(CCCCN)NC(=O)C(CCCCN)NC(=O)C(C)NC(=O)C(CCCCN)NC(=O)C(CC(C)C)NC1=O (centres undefined) (cyclo(AKKIVIKLKKILK); configuration not given here)
1.45 µM
CCNC(=O)N1CCc2c(Cl)c3c(c(OC)c2[C@@H]1[C@H]1OCc2c1ccc(OC)c2OC)OCCO3
6.27 µM
CCN(CC)C(=S)SS(=O)(=O)c1ccc(N)cc1
46.2 µM

Attention now turns to another entry.
INPUT: Need GI50 of O=Cc1cn(Cc2ccccc2)c2ccccc12 , thanks.
OUTPUT: > 56 µM

###

# Tested on: SN12C renal
# ASSAY DETAILS: NCI tumour cell line growth inhibition, 48 h; in the data active = GI50 below about 0.43 µM; inactive = the rest
Log the outcome using a class from 1 (active), 0 (inactive)

Consider the following illustrative entries.
Fc1ccc(-c2ncn(C3CCNCC3)c2-c2ccnc(Oc3cccc(C(F)(F)F)c3)n2)cc1
0
C#CCNCCCN1C(=O)c2ccc3c4c(ccc(c24)C1=O)C(=O)N(CCCNCC#C)C3=O
1
O=c1cc(/C=C/c2ccc(O)c(O)c2)cc(/C=C/c2ccc(O)c(O)c2)o1
0

INPUT: Outcome logged for Cc1cccc(-n2cnc3cc(C(=O)N4CCCCC4)ccc32)c1 in this assay:
OUTPUT: 0

INPUT: For this compound, state the assay outcome: O=C(NNC(=O)c1ccccc1S)c1ccccc1S
OUTPUT: 0

###

# Test system: COLO 205 colon
# ASSAY DETAILS: NCI tumour cell line growth inhibition, 48 h
ASSAY METRIC: TGI

INPUT: // lookup TGI for Cc1ccc(S(=O)(=O)NC2CCCCO2)cc1 (stereo unspecified)
OUTPUT: > 100 µM

INPUT: Would you mind telling me what TGI value was observed for O=C(Nc1cccc([N+](=O)[O-])c1)/C(=N\NC(=O)c1ccncc1)c1nc2ccc([N+](=O)[O-])cc2[nH]c1=O ?
OUTPUT: > 100 µM

INPUT: Looking for the measured TGI of CCOC(=O)C(/C(=N/NC(=O)OC)C(=O)Nc1ccc(C(C)=O)cc1)c1cnc2ccccc2n1 (stereo unspecified) , can you help?
OUTPUT: > 100 µM

INPUT: Need TGI, item COc1cc2c(cc1OCCCC(=O)Nc1cc(C(=O)Nc3cc(C(=O)Nc4cc(C(=O)NCCCN(C)C)n(C)n4)n(C)c3)n(C)c1)N=CC1CCCN1C2=O (stereo unspecified)
OUTPUT: > 100 µM

INPUT: Endpoint output: TGI of O=S(=O)(Nc1nccs1)c1ccc(Nc2nc(-c3cccs3)nc3ccc(I)cc23)cc1 . Value?
OUTPUT: 38.2 µM

INPUT: Tell me the measured TGI of O=S(=O)(Nc1nc2ccccc2n1S(=O)(=O)c1ccccc1)c1ccccc1 , please.
OUTPUT: > 100 µM

INPUT: Query: TGI; subject: Cc1c(C)n(COCCO)c2ncnc(N)c12
OUTPUT: > 100 µM

INPUT: Could you tell me which TGI is on file for COc1ccc(/C=C2\C(=O)NC(=O)c3ccccc32)cc1OC ?
OUTPUT: > 100 µM

INPUT: Which TGI value belongs to COc1ccc(/C=C/C(=O)c2sc(Nc3ccc([N+](=O)[O-])cc3)nc2C)cc1 ?
OUTPUT: > 100 µM

INPUT: For the compound shown here, COC(=O)c1ccc(C2SC(C)C(=O)N2NC(=O)C(O)c2ccccc2)cc1 (stereo unspecified) , give the reported TGI.
OUTPUT: > 100 µM

INPUT: // TGI lookup, key: N#Cc1c(=N)cc2c3ccccc3oc3c(C#N)c(N)[nH]c1c32
OUTPUT: > 100 µM

###

# Tested on: SNB-75 CNS
# ASSAY DETAILS: NCI tumour cell line growth inhibition, 48 h
ASSAY METRIC: TGI

# count of solved cases: 3
COc1ccc(C2=Cc3nc2c(-c2ccccc2)c2ccc([nH]2)c(-c2ccccc2)c2nc(c(-c4ccccc4)c4ccc([nH]4)c3-c3ccccc3)C=C2)cc1
> 100 µM
CS(=O)(=O)Nc1ccc2c(c1)N(S(C)(=O)=O)CC2COS(C)(=O)=O (centres undefined)
> 100 µM
CN(C)[C@@H]1C(=O)C(C(=O)NCN2CCN(C(=N)N=C(N)N)CC2)=C(O)[C@@]2(O)C(=O)C3=C(O)c4c(O)cccc4[C@@](C)(O)[C@H]3C[C@@H]12
0.338 µM

// switching to the query compound
INPUT: TGI for CCCCCCC1=NOC(C(c2cc[nH]c2)N(C)[C@H](C(=O)OC)C(C)C)C1 (some centres undefined) ?
OUTPUT: > 100 µM

###

# System: COLO 205 colon
# ASSAY DETAILS: NCI tumour cell line growth inhibition, 48 h
ASSAY METRIC: TGI

O=C1NC(N/N=C\C(O)C(O)C(O)C(O)CO)=N/C1=C\c1ccc(Cl)cc1 (stereo unspecified)
23.7 µM
O=C(O)C(CCc1ccccc1)N1C(=O)c2ccccc2C1=O (stereo unspecified)
> 100 µM

Now consider a different compound.
INPUT: Which TGI value is on record for COc1ccc(CNc2nc3ccccc3nc2C(=O)O)cc1OC ?
OUTPUT: > 100 µM

###

# System: RXF-631 renal
# ASSAY DETAILS: NCI tumour cell line growth inhibition, 48 h
ASSAY METRIC: TGI

Completed entries (count: 5):
CN(C)C(=S)/N=c1\ssc(=Nc2ccccc2)n1C
> 100 µM
CCOC(=O)c1ccc(O)cc1
> 100 µM
Oc1ccc2c(c1)OCC1(O)Cc3cc(O)c(O)cc3C21 (stereo unspecified)
> 77.3 µM
O=C1C2=C(C(c3ccccc3)=C1c1ccccc1)c1ccccc1C1(c3ccccc3)C2=C(O)C(c2ccccc2)=C1c1ccccc1 (stereo unspecified)
> 100 µM
COC(=O)C(=O)C(CC(=O)Nc1c(C)cccc1C)C(=O)OC (stereo unspecified)
> 100 µM

Next compound, TGI to be filled in.
INPUT: API: value(readout=TGI, system=RXF-631 renal) for record CN1CCN(Cc2nc3cccc4c3c([n+]2[O-])-c2ccccc2-4)CC1
OUTPUT: > 100 µM

###

# Test system: 786-0 renal
# ASSAY DETAILS: NCI tumour cell line growth inhibition, 48 h
Quick reference for TGI among some compounds
Response body: numeric value in µM, unit text excluded.

INPUT: What does the data say about its TGI? Entry: COc1ccc2nc3c(n2c1)C(=O)C(=O)c1ccccc1-3
OUTPUT: 4.4

INPUT: Given COC(=O)[C@]12CC[C@@H](C)[C@H](C)[C@@H]1C1=CC[C@@H]3[C@@]4(C)C[C@@H](OC(C)=O)[C@H](O)[C@@](C)(CO)[C@@H]4[C@H](O)C[C@@]3(C)[C@]1(C)CC2 , state its recorded TGI.
OUTPUT: 29.8

INPUT: Find the recorded TGI belonging to O=C1NC(N/N=C\C(O)C(O)C(O)C(O)CO)=N/C1=C\c1ccc(Cl)cc1 (configuration not stated) and report it.
OUTPUT: 18.1

###

# Test system: MOLT-4 leukemia
# ASSAY DETAILS: NCI tumour cell line growth inhibition, 48 h
Measured TGI by item

Sample records with TGI:
COC(=O)[C@]1(C)CCC[C@]2(C)C3CC4OOC3(C=C4C(C)(C)O)CCC21 (some centres undefined)
67.3 µM
COc1ccc(-c2csc(=[N+]3CCCCC3)s2)cc1
10.3 µM
COC(=O)N[C@H]1C=C[C@@H]2/C=C(C)/C=C/[C@@H](C)[C@H]([C@H](C)[C@H](O)[C@@H](C)NC(C)=O)OC(=O)/C=C/C=C(C)\C=C\[C@]2(C)C1
> 45.3 µM
O=C(O)C(CCc1ccccc1)N1C(=O)c2ccccc2C1=O (centres undefined)
> 100 µM

INPUT: Would you kindly share the measured TGI for CCOC(=O)C1C(c2ccc3c(c2)OCO3)c2c([nH][nH]c2=O)CC1(O)OCC (centres undefined) ?
OUTPUT: > 100 µM

###

# Test system: SNB-75 CNS
# ASSAY DETAILS: NCI tumour cell line growth inhibition, 48 h; in the data active means GI50 below about 0.43 µM; inactive means the rest
Where a SMILES comes first, the peptide text is derived from it.
Pick one and only one: active, inactive

Study these solved cases before continuing.
COc1ccc2c(c1OC)C(=O)OC2C1c2c(c(N)c3c(c2OC)OCO3)CCN1C (centres undefined)
inactive
CCCCCCCCCCCCCCCC(=O)Nc1ccn([C@@H]2O[C@H](CO)[C@@H](O)[C@@H]2C#N)c(=O)n1
inactive
C#CC(F)(F)[C@]1(O)CC[C@H]2[C@@H]3CCC4=CC(=O)CCC4=C3[C@@H](c3ccc(C4CC4)cc3)C[C@@]21C
active
COc1ccc(C(O)c2cc3c(N)c(C(=O)Nc4ccccc4)sc3nc2C)cc1 (centres undefined)
active

INPUT: Record request — test call for CCC(C)C1NC(=O)C(CCCCN)NC(=O)C(CCCCN)NC(=O)C(CC(C)C)NC(=O)C(CCCCN)NC(=O)C(C(C)CC)NC(=O)C(C(C)C)NC(=O)C(C(C)CC)NC(=O)C(CCCCN)NC(=O)C(CCCCN)NC(=O)C(C)NC(=O)C(CCCCN)NC(=O)C(CC(C)C)NC1=O (centres undefined) (cyclo(AKKIVIKLKKILK); configuration not given here)
OUTPUT: inactive

INPUT: Per the records of this test, what outcome belongs to CCNC(=O)N1CCc2c(Cl)c3c(c(OC)c2[C@@H]1[C@H]1OCc2c1ccc(OC)c2OC)OCCO3 ?
OUTPUT: inactive

INPUT: Would you mind telling me which call this test gave O=C1C=CC2(NN=C(c3ccccc3)N2c2ccccc2)c2cccc(O)c21 (centres undefined) ?
OUTPUT: inactive

INPUT: Hey, what did the test say about COc1ccc2nc3c(n2c1)C(=O)C(=O)c1ccccc1-3 ?
OUTPUT: inactive

INPUT: Hi, sorry to bother you, what did the test record for NS(=O)(=O)c1ccc(N=Nc2c(O)[nH]c3ccc(Cl)cc23)cc1 ?
OUTPUT: inactive
